Numbers sourced from PubChem BioAssay (NCI).

Tested on: OVCAR-5 ovarian
Assay: NCI-60 one-dose screen, 48 h (100 = growth as untreated, 0 = no growth, -100 = all killed)
Settings: 10 µM unless noted
This is part of a sample that, as a whole, favours compounds with a hit. Of some 83,000 tested, about 20% had one in any assay.
# note: exactly 80% is not below, so it is 0 (no); use 1 (yes) for growth strictly under it

Compound	Cat
CS(=O)(=O)Nc1cc(-c2ccc3ncnc(Nc4ccc5[nH]ncc5c4)c3c2)cnc1Cl	1 (yes)
COc1cc(-c2cc(=O)oc3cc(O)ccc23)cc(OC)c1OC	0 (no)
COc1ccc(C(=O)c2cc3c(N)c(C(=O)Nc4cccc(Br)c4C)sc3nc2C)cc1	1 (yes)
C/C(=C(/c1ccccc1)c1ccc(OCC(O)CNCCN2CCOCC2)cc1)c1ccccc1 (stereo not given)	1 (yes)
COc1ccc2nc(N=Nc3c(O)ccc4ccccc34)sc2c1	1 (yes)
CC(=O)N1c2ccccc2NC2=C(C(=O)N(Cc3ccccc3)C2(C)C)C1c1ccco1 (stereo not given)	1 (yes)
Clc1ccc2c(c1)c(-c1ccccc1)nc1nncn12	0 (no)
CC(=O)c1c(-c2ccc(OC(F)(F)F)cc2)nc2ccccn12	0 (no)
O=S(=O)(NCCNc1nccc(-c2c(-c3ccc(F)c(O)c3)nc3sccn23)n1)c1ccccc1	0 (no)

====

Recorded growth for the following compounds
Test system: BT-549 breast
Experiment: NCI-60 one-dose screen, 48 h (100 = growth as untreated, 0 = no growth, -100 = all killed)
Details: 10 µM unless noted
The panel holds about 83,000 compounds, 20% with a hit somewhere; the sample as a whole holds those more often.
Recorded endpoint: growth (%)

Compound	Study system	Recorded endpoint	Reading
C[C@]12C[C@H]1CC[C@]1(C)[C@@H]2CC[C@@]23C[C@H](CC[C@H]21)[C@@](O)(CO)C3	BT-549 breast	growth	77
CN1C(=O)N(C)C2NC(N/N=C/c3ccccc3)=NC21 (centres undefined)	BT-549 breast	growth	100
COc1cc2nc(Cc3ccc(C)cc3)[nH]c(=O)c2cc1OC	BT-549 breast	growth	229
CC1(C)[C@H](O)CC[C@]2(C)[C@@H]1CC[C@@]13C[C@@H](CC[C@H]12)[C@@](O)(CO)C3	BT-549 breast	growth	90.3
Clc1nc(Cl)c2ncn(CCOCCn3cnc4c(Cl)nc(Cl)nc43)c2n1	BT-549 breast	growth	-94.1
Nc1ccccc1NC(=O)c1ccc(CN2CCC/C(=C\c3cccc(Cl)c3)C2=O)cc1	BT-549 breast	growth	-9.32
CCCCCCCC(=O)Nc1nc2[nH]c(CN3CCN(Cc4cccc(I)c4)CC3)c(CN3CCN(Cc4cccc(I)c4)CC3)c2c(=O)[nH]1	BT-549 breast	growth	-4.02
C/C(=C(/c1ccccc1)c1ccc(OCC(O)CNCCN2CCOCC2)cc1)c1ccccc1 (centres undefined)	BT-549 breast	growth	105
COc1cccc2c1C(=O)c1c(O)c3c(c(O)c1C2=O)C[C@@](O)(C(=O)CO)C[C@@H]3O[C@H]1C[C@H](N)[C@@H](O)[C@H](C)O1	BT-549 breast	growth	-39
O=C(Nc1ccc2cc3ccc(NC(=O)NC4CCCCC4)cc3nc2c1)NC1CCCCC1	BT-549 breast	growth	75
COc1ccc(/C(=C\c2ccccc2)C(=O)O)cc1OC	BT-549 breast	growth	102
COc1ccc(-c2nc(SCC(C)C)nc(N/N=C(/C)c3ccc(OC)c(OC)c3)c2C#N)cc1	BT-549 breast	growth	97.8
Nc1nnc2cc(Cl)ccc2n1	BT-549 breast	growth	114
COc1cccc2cc(-c3cc4ccccc4[nH]3)/c(=N/C(=S)Nc3ccc(C)cc3)oc12	BT-549 breast	growth	89.6
COc1ccc(C(=O)c2cc3c(N)c(C(=O)Nc4cccc(OC)c4)sc3nc2C)cc1	BT-549 breast	growth	45.6
CN1CCN(c2cnc(C(=O)Nc3cc(F)cc4cccnc34)cn2)CC1	BT-549 breast	growth	62.2
c1ccc(C2CC(c3cccc(Nc4ccncc4)c3)=NN2c2ccccc2)cc1 (centres undefined)	BT-549 breast	growth	92.7
CC(c1ccccc1)n1ccnc1CO (centres undefined)	BT-549 breast	growth	113
O=C(O)CNC(=O)CN1C(=O)c2ccccc2C1=O	BT-549 breast	growth	89.5
Cc1c2c(cc[n+]1Cc1ccccc1)c1ccc(OCC3CCCCC3)cc1n2CC1CCCCC1	BT-549 breast	growth	-91
O=C1c2cccnc2C(=O)c2nc3cc(N4CCN(C5CC5)CC4)ccc3nc21	BT-549 breast	growth	-93.7
CCCC1C(C(=O)OCC)=C(N)Oc2cc(O)ccc21 (centres undefined)	BT-549 breast	growth	94
COc1ccc(CNC(=O)COc2ccc(/C=N/Nc3nc4ccccc4s3)cc2)cc1	BT-549 breast	growth	12.9
COC(=O)C1NC(=S)N(c2ccc(Cl)cc2)C1/C=C/c1ccccc1 (centres undefined)	BT-549 breast	growth	93.8
COc1cc(C2NC(c3cc(OC)c(OC)c(OC)c3)C(C#N)(C#N)C2(C#N)C#N)cc(OC)c1OC (centres undefined)	BT-549 breast	growth	101
COc1cc2ncnc(Nc3ccc(C(=O)/C=C/c4ccc(C(F)(F)F)cc4F)cc3)c2cc1OC	BT-549 breast	growth	93.6
COc1ccc(C(=O)/C=C/c2c(OC)cc(OC)cc2OC)c(OC)c1	BT-549 breast	growth	12.3
CCOC(=O)c1ccc(Nc2ccnc(SCC(=O)c3ccc(C#N)cc3)n2)cc1	BT-549 breast	growth	50.1
CNC(=O)Nc1ccc(-c2nc(N3CCOCC3)nc3c2cnn3C2CCOCC2)cc1	BT-549 breast	growth	-15.4
C=C(C)[C@H]1CC/C(C)=C/CC[C@]2(C)O[C@H]2CC/C(COC(=O)[C@@H](OC(C)=O)[C@H](NC(=O)c2ccccc2)c2ccccc2)=C\[C@@H]1O	BT-549 breast	growth	97.1
COc1cc(C2CC(c3cccc(Nc4ccncc4)c3)=NN2c2ccc(Cl)cc2)cc(OC)c1OC (centres undefined)	BT-549 breast	growth	107
COc1ccc(Cc2nc3cc(OC)c(OC)cc3c(=O)[nH]2)cc1	BT-549 breast	growth	159
O=c1[nH]nc(-c2ccc(Cl)cc2)cc1Cc1cccc([N+](=O)[O-])c1	BT-549 breast	growth	133
CCc1c(Nc2ccc(C)cc2)[nH]c(N)nc1=S	BT-549 breast	growth	100
C#CC(=O)Nc1cccc(Nc2nc3c(c(NCc4ccccc4)n2)CCCC3)c1	BT-549 breast	growth	-70
CS(=O)(=O)OCCN(CCOS(C)(=O)=O)c1ccc(/C=N/Nc2ccc([N+](=O)[O-])cc2[N+](=O)[O-])cc1	BT-549 breast	growth	99.3
CCN(CC)CCCCCCNc1cc(OC)cc2cccnc12	BT-549 breast	growth	83.9
NS(=O)(=O)c1cccc(NC(=O)C(=O)C2C(=O)Nc3ccccc32)c1 (centres undefined)	BT-549 breast	growth	109
O=C(c1ccccc1)N1N=C(c2ccc(-n3ccc(C(F)(F)F)n3)cc2)CC1c1ccc[nH]1 (centres undefined)	BT-549 breast	growth	116

====

Tested on: NCI-H460 lung
Assay: NCI-60 one-dose screen, 48 h (100 = growth as untreated, 0 = no growth, -100 = all killed)
Conditions: 10 µM unless noted
The panel holds about 83,000 compounds, 20% with a hit somewhere; the sample as a whole holds those more often. The source made the active and inactive calls. The calls were made as follows: active = growth percent below 10; inactive = the rest.
Recorded endpoint: growth

Molecule	Reading
CNC(=O)c1c(NC(=O)c2ccc(C(C)C)cc2)sc2c(CN(C)C)c(O)ccc12	38.7% (inactive)
CC(=O)N1N=C(c2cccc(Nc3ccncc3)c2)CC1c1ccc2c(c1)OCO2 (stereo not given)	101% (inactive)
CNC(=O)Nc1ccc(-c2nc(N3CCOCC3)nc3c2cnn3C2CCOCC2)cc1	11.8% (inactive)
CN1CCN(c2c(F)cc(NC3=C(Cl)C(=O)c4ncccc4C3=O)cc2F)CC1	107% (inactive)
CCCCCCCCCCCC(=O)C(CCCCCCCCCC)C(=O)Nc1ccccc1 (stereo not given)	111% (inactive)

====

Tested on: HOP-92 NSCLC
Test: NCI-60 one-dose screen, 48 h (100 = growth as untreated, 0 = no growth, -100 = all killed)
Conditions: 10 µM unless noted
This is part of a sample that, as a whole, favours compounds with a hit. Of some 83,000 tested, about 20% had one in any assay.
Recorded endpoint: growth (%)

Structure as smiles	U	Reading
COc1ccc(C(=O)c2cc3c(N)c(C(=O)Nc4cccc5ccccc45)sc3nc2C)cc1	%	44.5
COc1ccc(-c2c(-c3ccccc3)noc2N)cc1OC	%	90.8
CN(C)C(=O)OCc1nc2c(N3CCOCC3)nc(-c3ccccc3)nc2n1C	%	-68.4
CC1=CC[C@@H]2CC[C@]3(C)[C@H](CC[C@@H]4[C@@]5(C)CCCNC(C)(C)[C@@H]5CC[C@]43C)[C@H]2[C@@H]1C	%	23.8
Cc1ccc(C(=O)Nc2ccccc2C(=O)N/N=C(\c2ccccc2)c2ccccn2)cc1	%	52.7
